Hi there, I'd appreciate the recorded inhibition of aggregation for every entry that follows.
assay: reduction of polyQ htt aggregates in cells – imaging, exon1htt(103Q)mCFP cells, high-content imaging, primary screen (AID 483); conditions: exon1htt(103Q)mCFP cell line, aggregate imaging, at 2 µM; hits give high values;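 also: compound exposure lasted 3 days before fixation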
Just the number in %, nothing appended.

input: Fill in: inhibition of aggregation of O=C(NCc1ccccc1)C1CCCN(S(=O)(=O)c2cccnc2)C1 (centres undefined) is ___
output: 0.8

input: # lookup: inhibition of aggregation of COc1ccc(C(=O)NCCC(C)C)cc1S(=O)(=O)N1CCOCC1
output: 0.6

input: Fill blank: measured inhibition of aggregation of the compound COc1ccccc1S(=O)(=O)Cc1ccc(C(=O)N2CCN(c3ccccn3)CC2)o1 is ____.
output: 0.9

input: # input compound: O=S(=O)(NCCCCCNS(=O)(=O)c1ccccc1)c1ccccc1 ; wanted: its inhibition of aggregation
output: -5

input: // query inhibition of aggregation value for entry CN1CCc2c(sc3c2C(=O)NC(c2cccc(OC(=O)c4cccs4)c2)N3)C1 (centres undefined)
output: -4.1

input: Entry O=C1c2ccccc2-c2ccc(C(=O)N3CCOCC3)cc21 has what inhibition of aggregation?
output: -6.2

input: Any idea what inhibition of aggregation was measured for CCSC1=NCN(CCCC(=O)O)CN1 ?
output: 5.8

input: Entry CCOc1ccc(NS(=O)(=O)c2cc(Cl)ccc2OC)cc1 has what inhibition of aggregation?
output: 19.4

input: Name the recorded inhibition of aggregation for Cc1csc(NC(=O)Nc2cccc(Cl)c2)n1 .
output: -3.3

input: Which inhibition of aggregation is reported for this compound? O=S(=O)(Cc1ccc(Cl)cc1)Nc1ccc2c(c1)OCO2
output: 10.4

input: Quick check: inhibition of aggregation of Nc1nc(N)nc(-c2ccccc2)n1 ?
output: 12

input: Find the recorded inhibition of aggregation belonging to CCOc1ccc2cc(C#N)c(SCC(=O)N3CCC(C)CC3)nc2c1 and report it.
output: 6

input: Any idea what its inhibition of aggregation is? The compound is Cc1cc(C)c(NC2=NCC(=O)N2C2CCCCC2)c(C)c1
output: 5.3

input: So what does the record say about inhibition of aggregation for O=S(CC(O)COCc1ccc(Cl)cc1)c1ccccn1 (centres undefined) ?
output: -11.3

input: Recorded inhibition of aggregation for O=C(Nc1ccccc1)c1cccc(N2CCCC2=O)c1 , please?
output: -3.4

input: Recorded inhibition of aggregation of CC(c1ccco1)N(C(=O)c1ccc(S(=O)(=O)N2CCCCC2)cc1)c1ccccn1 (centres undefined) , please.
output: 13.8

input: Would you mind telling me what inhibition of aggregation value was observed for CCC(=NC(C)c1ccccc1)c1c(O)n(C)c(=O)n(C)c1=O (centres undefined) ?
output: 3.2

input: Endpoint output: inhibition of aggregation of CC(C)NC(=O)Nc1cccs1 . Value?
output: 21.6

input: // inhibition of aggregation lookup, key: COCCn1c(CN2CCN(c3ccccc3F)CC2)nc2c1c(=O)n(C)c(=O)n2C
output: 0.1
